- MEASURED TARGET: CTSS (Homo sapiens, UniProt P25774)
- Sequence (P25774 115-331): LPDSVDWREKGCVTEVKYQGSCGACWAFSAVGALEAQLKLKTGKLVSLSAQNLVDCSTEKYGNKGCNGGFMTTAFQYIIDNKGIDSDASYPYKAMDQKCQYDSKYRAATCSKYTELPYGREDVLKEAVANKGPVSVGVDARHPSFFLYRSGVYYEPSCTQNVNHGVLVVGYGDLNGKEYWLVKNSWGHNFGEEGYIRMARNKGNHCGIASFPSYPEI
- ASSAY NAME: Cathepsin S inhibition, progress curve assay with Z-Val-Val-Arg-AMC
- Assay type: biochemical
PARAMETER: pKi
In simple prose, pKi is minus the logarithm base ten of a concentration in moles per litre.

// recorded pKi for CN(C)C(=O)C(Cc1ccccc1)NC(=O)[C@H]1O[C@@H]1C(=O)NCCCNC(=O)c1ccc(-c2ccccn2)nc1 (stereo partly shown) [Compound 2] : 5.52
